- Species on record: Rattus norvegicus
- assay: Open TG-GATES - Regimen: Daily Repeat
- Type: toxicity, organism-based, Sprague-Dawley
- Parameters: regimen Daily Repeat, gender Male, age 6 weeks
- assay-conditions: in vivo, po, 1000 mg/kg, […], tissue Plasma, route gavage, dose level High, time 7 day
Provide the reported TG of each item.

1. CCN1CCCC1CNC(=O)c1cc(S(N)(=O)=O)ccc1OC (centres undefined) [SULPIRIDE] ... 94 mg/dL
2. CC(C)(S)[C@@H](N)C(=O)O ... 59.2 mg/dL
3. O=C(N[C@H](CO)[C@H](O)c1ccc([N+](=O)[O-])cc1)C(Cl)Cl ... 71.8 mg/dL

// below: TG requested for another compound
In one line, give reported TG of the entry O=C(O)c1cccnc1 .
107 mg/dL
